Molecular target: IKZF2 (Homo sapiens, UniProt Q96SW2+Q9UKS7)
Sequence (Q9UKS7 1-500 isoform Q9UKS7-2): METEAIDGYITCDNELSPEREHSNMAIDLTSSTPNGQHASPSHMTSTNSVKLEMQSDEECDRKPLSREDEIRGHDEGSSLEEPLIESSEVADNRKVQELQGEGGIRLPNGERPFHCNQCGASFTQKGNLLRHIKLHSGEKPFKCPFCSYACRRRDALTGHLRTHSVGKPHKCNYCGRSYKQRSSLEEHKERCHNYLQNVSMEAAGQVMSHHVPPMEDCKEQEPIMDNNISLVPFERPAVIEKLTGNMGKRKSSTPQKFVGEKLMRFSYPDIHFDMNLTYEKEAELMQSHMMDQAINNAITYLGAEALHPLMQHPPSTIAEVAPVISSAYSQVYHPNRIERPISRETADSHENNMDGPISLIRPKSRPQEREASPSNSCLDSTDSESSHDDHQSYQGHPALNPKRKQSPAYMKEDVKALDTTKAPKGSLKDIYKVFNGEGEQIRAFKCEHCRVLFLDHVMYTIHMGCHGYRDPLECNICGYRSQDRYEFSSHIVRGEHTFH
Sequence (Q96SW2 whole entry): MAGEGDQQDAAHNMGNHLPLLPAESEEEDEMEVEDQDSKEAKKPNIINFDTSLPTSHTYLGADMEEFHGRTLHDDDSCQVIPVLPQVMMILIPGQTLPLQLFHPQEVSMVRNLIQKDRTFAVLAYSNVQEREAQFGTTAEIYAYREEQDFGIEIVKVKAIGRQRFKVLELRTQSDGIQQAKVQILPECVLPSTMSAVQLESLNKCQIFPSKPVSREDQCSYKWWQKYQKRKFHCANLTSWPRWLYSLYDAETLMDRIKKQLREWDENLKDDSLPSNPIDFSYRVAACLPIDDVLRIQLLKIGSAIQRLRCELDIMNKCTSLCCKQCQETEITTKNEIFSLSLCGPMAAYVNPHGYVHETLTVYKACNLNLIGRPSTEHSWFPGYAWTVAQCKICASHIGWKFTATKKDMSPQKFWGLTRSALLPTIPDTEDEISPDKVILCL
Sequence (Q16531 whole entry partner): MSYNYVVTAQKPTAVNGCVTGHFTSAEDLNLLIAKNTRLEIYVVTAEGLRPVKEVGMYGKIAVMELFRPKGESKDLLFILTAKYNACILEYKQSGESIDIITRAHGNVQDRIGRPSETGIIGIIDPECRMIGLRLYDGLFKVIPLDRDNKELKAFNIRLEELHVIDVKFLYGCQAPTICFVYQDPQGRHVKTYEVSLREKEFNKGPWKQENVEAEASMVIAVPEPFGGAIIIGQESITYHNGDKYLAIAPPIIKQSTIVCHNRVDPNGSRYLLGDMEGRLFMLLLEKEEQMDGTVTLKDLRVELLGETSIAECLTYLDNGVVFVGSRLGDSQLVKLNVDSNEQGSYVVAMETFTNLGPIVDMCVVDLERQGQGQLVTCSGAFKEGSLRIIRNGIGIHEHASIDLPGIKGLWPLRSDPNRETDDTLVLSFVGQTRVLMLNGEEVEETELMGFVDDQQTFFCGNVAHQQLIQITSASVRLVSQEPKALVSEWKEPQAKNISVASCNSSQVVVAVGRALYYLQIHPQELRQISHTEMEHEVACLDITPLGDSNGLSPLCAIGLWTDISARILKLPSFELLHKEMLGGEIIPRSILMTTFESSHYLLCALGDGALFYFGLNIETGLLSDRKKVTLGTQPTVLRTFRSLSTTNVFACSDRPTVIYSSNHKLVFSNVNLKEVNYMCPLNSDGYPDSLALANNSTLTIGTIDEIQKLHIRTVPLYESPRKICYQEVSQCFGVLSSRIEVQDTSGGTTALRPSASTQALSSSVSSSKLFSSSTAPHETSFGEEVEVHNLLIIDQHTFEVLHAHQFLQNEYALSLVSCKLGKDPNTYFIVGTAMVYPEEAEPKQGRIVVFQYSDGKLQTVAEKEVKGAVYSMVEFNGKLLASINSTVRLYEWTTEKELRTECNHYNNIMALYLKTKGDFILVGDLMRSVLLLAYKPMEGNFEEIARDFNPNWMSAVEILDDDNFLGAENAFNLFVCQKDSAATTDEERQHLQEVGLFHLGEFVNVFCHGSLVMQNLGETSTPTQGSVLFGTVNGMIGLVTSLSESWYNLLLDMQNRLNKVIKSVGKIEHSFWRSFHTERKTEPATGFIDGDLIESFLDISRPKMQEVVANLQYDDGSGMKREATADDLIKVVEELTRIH
Assay: HEK293 HiBiT in vitro degradation of IKZF2
Format: cell-based
Parameters: expressed in transfected cells
Conditions: HEK293 HiBiT; maximum degradation at the highest concentration tested
Recorded IKZF2 Dmax, one value per entry.

compound: O=C1CCC(N2Cc3cc(C[C@H]4CC(CO)CC[C@@H]4NC4CCCCC4)ccc3C2=O)C(=O)N1 (single isomer, unassigned) [Example 383]
tested.system: IKZF2 (Homo sapiens, UniProt Q96SW2+Q9UKS7)
IKZF2 Dmax: 77%
//
compound: CC(CC(C)(C)C)N[C@H]1CCCC[C@@H]1Cc1ccc2c(c1)CN(C1CCC(=O)NC1=O)C2=O (stereo partly drawn) [Example 221]
tested.system: IKZF2 (Homo sapiens, UniProt Q96SW2+Q9UKS7)
IKZF2 Dmax: 98%
//
compound: N#CC1CCC(N[C@H]2CCCC[C@@H]2Cc2ccc3c(c2)CN(C2CCC(=O)NC2=O)C3=O)CC1 (single isomer, unassigned) [Example 268]
tested.system: IKZF2 (Homo sapiens, UniProt Q96SW2+Q9UKS7)
IKZF2 Dmax: 98%
